The following molecules are shown together with reported Growth (%) at 8 ppm Pyrior values.
Test system: Pyricularia oryzae
Format: cell-based
Setup Conditions: relative growth vs active compound-free control (100%), microtiter plate, 405 nm, 7 days after inoculation

# Molecule, Result Units, Growth (%) at 8 ppm Pyrior
measured = [
    ("CC(C)(C)C(O)(Cn1cncn1)c1cc(Cl)cc(Oc2ccc(Cl)cc2)c1 (stereo not shown)", "%", 0),
    ("CC(C)(C)C(O)(Cn1cncn1)c1cccc(Oc2ccccc2)c1 (stereo not shown)", "%", 89),
    ("CC(C)(C)C(O)(Cn1cncn1)c1cccc(Oc2ccc(Cl)cc2)c1 (stereo not shown)", "%", 0),
    ("CC(C)(C)C(O)(Cn1cncn1)c1cc(Cl)cc(Oc2ccccc2)c1 (stereo not shown)", "%", 69),
]
